- MEASURED TARGET: Sodium-dependent noradrenaline transporter (Homo sapiens)
pKi: −log10 of the molar value.
Outcome: label 1 for pKi of at least 6; label 0 for anything lower.

COMPOUND	CATEGORY
CC(=O)CN1CC[C@@H](Cc2ccc(F)cc2)C[C@@H]1CCCNC(=O)Nc1cc(C(C)=O)cc(C(C)=O)c1	label 1
CC(=O)c1cc(NC(=O)NCCC[C@H]2C[C@H](Cc3ccc(F)cc3)CCN2CCF)cc(C(C)=O)c1	label 1
CC(=O)c1cccc(NC(=O)NCCC[C@H]2C[C@H](Cc3ccc(F)cc3)CCN2)c1	label 1
CC(=O)c1cc(NC(=O)NCCC[C@H]2C[C@H](Cc3ccc(F)cc3)CCN2)cc(C(C)=O)c1	label 1
CC(=O)c1cccc(NC(=O)NCCC[C@H]2C[C@H](Cc3ccccc3)CCN2)c1 (racemic)	label 1
CCCN1CC[C@@H](Cc2ccc(F)cc2)C[C@@H]1CCCNC(=O)Nc1cccc(C(C)=O)c1	label 0
CC(=O)c1cc(NC(=O)NCCC[C@H]2C[C@H](Cc3ccc(F)cc3)CCN2CC(N)=O)cc(C(C)=O)c1	label 0
CCC(=O)N1CC[C@@H](Cc2ccc(F)cc2)C[C@@H]1CCCNC(=O)Nc1cc(C(C)=O)cc(C(C)=O)c1	label 0

---

- EXPERIMENT: Clearance in mouse at 2 mg/kg, iv
- Type: ADME, organism-based
- Parameters: dose 2 mg/kg, route intravenous
- CONDITION PARAMETERS: in vivo

SMILES STR	clearance
CCCN1CC[C@@H](Cc2ccc(F)cc2)C[C@@H]1CCCNC(=O)Nc1cccc(C(C)=O)c1	177 mL/min/kg

---

pKi: recorded values
- MEASURED TARGET: UniProtKB Q01959
- Sequence (Q01959 whole entry): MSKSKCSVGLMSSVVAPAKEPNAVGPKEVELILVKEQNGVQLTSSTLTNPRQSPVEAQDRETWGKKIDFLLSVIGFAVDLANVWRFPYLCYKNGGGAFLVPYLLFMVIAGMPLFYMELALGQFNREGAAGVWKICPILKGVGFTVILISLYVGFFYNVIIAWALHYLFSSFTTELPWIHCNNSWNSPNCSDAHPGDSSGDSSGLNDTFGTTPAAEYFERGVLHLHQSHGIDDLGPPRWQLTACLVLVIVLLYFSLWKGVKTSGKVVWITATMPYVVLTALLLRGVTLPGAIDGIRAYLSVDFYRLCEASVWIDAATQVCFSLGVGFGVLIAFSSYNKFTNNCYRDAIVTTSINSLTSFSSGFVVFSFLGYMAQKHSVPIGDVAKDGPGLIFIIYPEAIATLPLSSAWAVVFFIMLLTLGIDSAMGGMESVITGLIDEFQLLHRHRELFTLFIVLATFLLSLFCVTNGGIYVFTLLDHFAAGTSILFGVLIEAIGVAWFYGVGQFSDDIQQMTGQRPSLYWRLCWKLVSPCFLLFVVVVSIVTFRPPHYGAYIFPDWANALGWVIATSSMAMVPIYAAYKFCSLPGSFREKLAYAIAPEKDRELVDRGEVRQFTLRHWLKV
- EXPERIMENT: Inhibition of DAT
pKi: −log10 of the molar value.
MEASURE NAME: pKi

COMPOUND	OBS VALUE
CCC(=O)N1CC[C@@H](Cc2ccc(F)cc2)C[C@@H]1CCCNC(=O)Nc1cc(C(C)=O)cc(C(C)=O)c1	5.68
CC(=O)c1cccc(NC(=O)NCCC[C@H]2C[C@H](Cc3ccc(F)cc3)CCN2CCO)c1	5.65
CC(=O)c1cccc(NC(=O)NCCC[C@H]2C[C@H](Cc3ccccc3)CCN2)c1 (racemic)	7.49
CC(=O)c1cc(NC(=O)NCCC[C@H]2C[C@H](Cc3ccc(F)cc3)CCN2CCF)cc(C(C)=O)c1	6.19
CCCN1CC[C@@H](Cc2ccc(F)cc2)C[C@@H]1CCCNC(=O)Nc1cc(C(C)=O)cc(C(C)=O)c1	6.80
C=CCN1CC[C@@H](Cc2ccc(F)cc2)C[C@@H]1CCCNC(=O)Nc1cccc(C(C)=O)c1	6.07
N#Cc1cccc(NC(=O)NCCC[C@H]2C[C@H](Cc3ccccc3)CCN2)c1 (stereo in doubt; 5)	8.00
CC(=O)c1cc(NC(=O)NCCC[C@H]2C[C@H](Cc3ccc(F)cc3)CCN2CCCO)cc(C(C)=O)c1	6.22

---

- MEASURED TARGET: Sodium-dependent noradrenaline transporter (Homo sapiens, UniProt P23975)
- Sequence (P23975 whole entry): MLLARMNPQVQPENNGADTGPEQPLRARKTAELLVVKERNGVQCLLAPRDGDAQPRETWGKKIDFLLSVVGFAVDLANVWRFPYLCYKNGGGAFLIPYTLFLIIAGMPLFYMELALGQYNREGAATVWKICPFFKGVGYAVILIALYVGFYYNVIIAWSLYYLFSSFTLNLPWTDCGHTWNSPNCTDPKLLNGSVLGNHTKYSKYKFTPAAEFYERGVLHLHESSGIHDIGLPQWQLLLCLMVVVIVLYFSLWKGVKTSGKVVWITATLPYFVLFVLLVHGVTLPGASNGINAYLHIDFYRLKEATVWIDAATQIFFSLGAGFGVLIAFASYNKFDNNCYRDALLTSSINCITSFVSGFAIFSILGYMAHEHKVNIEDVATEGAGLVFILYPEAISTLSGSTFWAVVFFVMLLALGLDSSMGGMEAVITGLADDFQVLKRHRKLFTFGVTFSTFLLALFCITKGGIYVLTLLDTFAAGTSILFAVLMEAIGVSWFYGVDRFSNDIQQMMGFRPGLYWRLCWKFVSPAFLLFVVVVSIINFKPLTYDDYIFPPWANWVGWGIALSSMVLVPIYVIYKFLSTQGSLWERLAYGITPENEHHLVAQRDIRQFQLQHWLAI
- EXPERIMENT: Inhibition of NET
pKi: −log10 of the molar value.
Outcome: true (1) for pKi of at least 6; false (0) for anything lower.

COMPOUND	MEASURED TARGET	CATEGORY
N#Cc1cccc(NC(=O)NCCC[C@H]2C[C@H](Cc3ccccc3)CCN2)c1 (stereo in doubt; 5)	Sodium-dependent noradrenaline transporter (Homo sapiens, UniProt P23975)	true (1)
CC(=O)c1cc(NC(=O)NCCC[C@H]2C[C@H](Cc3ccc(F)cc3)CCN2C(=N)N)cc(C(C)=O)c1	Sodium-dependent noradrenaline transporter (Homo sapiens, UniProt P23975)	true (1)
C#CCN1CC[C@@H](Cc2ccc(F)cc2)C[C@@H]1CCCNC(=O)Nc1cc(C(C)=O)cc(C(C)=O)c1	Sodium-dependent noradrenaline transporter (Homo sapiens, UniProt P23975)	true (1)
CC(=O)c1cc(NC(=O)NCCC[C@H]2C[C@H](Cc3ccc(F)cc3)CCN2CCCO)cc(C(C)=O)c1	Sodium-dependent noradrenaline transporter (Homo sapiens, UniProt P23975)	true (1)
CC(=O)c1cccc(NC(=O)NCCC[C@H]2C[C@H](Cc3ccc(F)cc3)CCN2CCO)c1	Sodium-dependent noradrenaline transporter (Homo sapiens, UniProt P23975)	false (0)
